Measured MIC, listed per entry for reference.
# Tested on: Salmonella typhimurium
# TEST DESCRIPTION: Antimicrobial activity against Salmonella enterica serovar Typhimurium S21
# Type: functional, Salmonella enterica subsp. enterica serovar Typhimurium

Known MIC results, listed for orientation:
# SMILES RECORD, RESULT
rows = [
    ("CN1C[C@@H]2C[C@H]1CN2c1cc2c(cc1F)c(=O)c(C(=O)O)cn2C1CC1", "0.03 µg/mL"),
    ("O=C(O)c1cn(-c2ccc(F)cc2)c2cc(N3CCNCC3)c(F)cc2c1=O", "0.03 µg/mL"),
    ("C[C@H]1COc2c(N3CCN(C)CC3)c(F)cc3c(=O)c(C(=O)O)cn1c23.C[C@H]1COc2c(N3CCN(C)CC3)c(F)cc3c(=O)c(C(=O)O)cn1c23.O", "0.03 µg/mL"),
    ("CC1(C)S[C@@H]2[C@H](NC(=O)[C@H](N)c3ccccc3)C(=O)N2[C@H]1C(=O)O", "2 µg/mL"),
    ("CN1CCN(c2cc3c(cc2F)c(=O)c(C(=O)O)cn3-c2ccc(F)cc2)CC1", "0.25 µg/mL"),
]

Kindly state the measured MIC obtained for `C[C@@H]1CN(c2c(F)c(F)c3c(=O)c(C(=O)O)cn(C4CC4)c3c2F)C[C@H](C)N1` with Salmonella typhimurium.
0.12 µg/mL

API: value(readout=MIC, system=Salmonella typhimurium) for record `CO[C@@]1(NC(=O)Cc2cccs2)C(=O)N2C(C(=O)O)=C(COC(N)=O)CS[C@@H]21`
4 µg/mL

----------
# Test system: Salmonella typhimurium
# TEST DESCRIPTION: Antimicrobial activity against Salmonella enterica serovar Typhimurium CHS18 acrAB::Kan with GyrA S38F mutation
# Type: functional, Salmonella enterica subsp. enterica serovar Typhimurium
METRIC: MIC

# COMPOUND, MIC
records = [
    ("NC[C@H]1O[C@H](O[C@H]2[C@H](O)[C@@H](O[C@H]3O[C@H](CO)[C@@H](O)[C@H](N)[C@H]3O)[C@H](N)C[C@@H]2N)[C@H](O)[C@@H](O)[C@@H]1O", "> 64 µg/mL"),
]

Any idea what MIC came out for COc1c(N2CCNC(C)C2)c(F)cc2c(=O)c(C(=O)O)cn(C3CC3)c12 (stereo unspecified) on Salmonella typhimurium?
0.12 µg/mL

// fetch Salmonella typhimurium MIC for `CC(=O)OCC1=C(C(=O)O)N2C(=O)[C@@H](NC(=O)Cc3cccs3)[C@H]2SC1`
2 µg/mL

Lab request: please report MIC under test system Salmonella typhimurium for `CCn1cc(C(=O)O)c(=O)c2cc(F)c(N3CCNCC3)nc21`
0.25 µg/mL

// map `O=C(O)c1cn(-c2ccc(F)cc2)c2cc(N3CCNCC3)c(F)cc2c1=O` to recorded MIC (system: Salmonella typhimurium)
0.03 µg/mL

Lab request: please report MIC under test system Salmonella typhimurium for `CO/N=C(\C(=O)N[C@@H]1C(=O)N2C(C(=O)O)=C(CSC(=O)c3ccco3)CS[C@H]12)c1csc(N)n1`
0.12 µg/mL

Please provide the recorded MIC for `CC1(C)S[C@@H]2[C@H](NC(=O)[C@H](N)c3ccccc3)C(=O)N2[C@H]1C(=O)O` , tested on Salmonella typhimurium.
1 µg/mL

What MIC appears in the records for this compound with Salmonella typhimurium? `O=C(N[C@H](CO)[C@H](O)c1ccc([N+](=O)[O-])cc1)C(Cl)Cl`
2 µg/mL

----------
# Tested on: Salmonella typhimurium
# TEST DESCRIPTION: Antimicrobial activity against Salmonella enterica serovar Typhimurium CS3 gyrA+ with GyrA S83F, D87N, ParC S80I mutation
# Format: functional, Salmonella enterica subsp. enterica serovar Typhimurium
Reported values of MIC for individual entries
Number in µg/mL, nothing else.

# MOLECULE, MIC (µg/mL)
rows = [
    ("COc1c(N2CCNC(C)C2)c(F)cc2c(=O)c(C(=O)O)cn(C3CC3)c12 (centres undefined)", 0.06),
]

Give its MIC value. Item: `O=C(O)c1cn(-c2ccc(F)cc2)c2cc(N3CCNCC3)c(F)cc2c1=O`
0.06

Query (molecule): `O=C(O)c1cn(C2CC2)c2cc(N3CCNCC3)c(F)cc2c1=O` ; field requested: MIC
0.03

----------
# System: Salmonella typhimurium
# TEST DESCRIPTION: Antimicrobial activity against Salmonella enterica serovar Typhimurium CHS38 with GyrA D87G mutation
# Assay type: functional, Salmonella enterica subsp. enterica serovar Typhimurium
METRIC: MIC (µg/mL)
Give the value, in units of µg/mL, as a plain number.

These solved cases illustrate the format of a correct answer.
# COMPOUND, MIC [µg/mL]
rows = [
    ("CN1C[C@@H]2C[C@H]1CN2c1cc2c(cc1F)c(=O)c(C(=O)O)cn2C1CC1 [DANOFLOXACIN]", 0.25),
    ("CN(C)[C@@H]1C(O)=C(C(N)=O)C(=O)[C@@]2(O)C(O)=C3C(=O)c4c(O)cccc4[C@@](C)(O)[C@H]3C[C@@H]12 [TETRACYCLINE]", 32),
    ("CC(=O)OCC1=C(C(=O)O)N2C(=O)[C@@H](NC(=O)Cc3cccs3)[C@H]2SC1 [CEPHALOTHIN]", 8),
    ("CN1CCN(c2cc3c(cc2F)c(=O)c(C(=O)O)cn3-c2ccc(F)cc2)CC1 [DIFLOXACIN]", 1),
    ("C[C@@H]1CN(c2c(F)c(F)c3c(=O)c(C(=O)O)cn(C4CC4)c3c2F)C[C@H](C)N1 [ORBIFLOXACIN]", 0.5),
]

Endpoint output: MIC of CCn1cc(C(=O)O)c(=O)c2ccc(C)nc21 [NALIDIXIC ACID] . Value?
32

Given O=C(N[C@H](CO)[C@H](O)c1ccc([N+](=O)[O-])cc1)C(Cl)Cl [CHLORAMPHENICOL] , state its recorded MIC.
32

Data request, read-out MIC, for CCn1cc(C(=O)O)c(=O)c2cc(F)c(N3CCNCC3)nc21 [ENOXACIN]
0.12

----------
# System: Salmonella typhimurium
# TEST DESCRIPTION: Antimicrobial activity against Salmonella enterica serovar Typhimurium CS3 with GyrA S83F, D87N, ParC S80I mutation
# Format: functional, Salmonella enterica subsp. enterica serovar Typhimurium
METRIC: MIC

// below: answered compounds
# COMPOUND, MIC
data = [
    ("CC1(C)S[C@@H]2[C@H](NC(=O)[C@H](N)c3ccccc3)C(=O)N2[C@H]1C(=O)O", "> 32 µg/mL"),
    ("COc1c(N2CCNC(C)C2)c(F)cc2c(=O)c(C(=O)O)cn(C3CC3)c12 (stereo not drawn)", "4 µg/mL"),
    ("O=C(N[C@H](CO)[C@H](O)c1ccc([N+](=O)[O-])cc1)C(Cl)Cl", "> 32 µg/mL"),
    ("CN1C[C@@H]2C[C@H]1CN2c1cc2c(cc1F)c(=O)c(C(=O)O)cn2C1CC1", "> 16 µg/mL"),
    ("C[C@@H]1CN(c2c(F)c(F)c3c(=O)c(C(=O)O)cn(C4CC4)c3c2F)C[C@H](C)N1", "> 16 µg/mL"),
    ("CO[C@@]1(NC(=O)Cc2cccs2)C(=O)N2C(C(=O)O)=C(COC(N)=O)CS[C@@H]21", "1 µg/mL"),
    ("CN1CCN(c2cc3c(cc2F)c(=O)c(C(=O)O)cn3-c2ccc(F)cc2)CC1", "> 16 µg/mL"),
]

# ---- query compound ----
What value of measured MIC is listed for `CCn1cc(C(=O)O)c(=O)c2ccc(C)nc21` ?
> 256 µg/mL

----------
# Tested on: Salmonella typhimurium
# TEST DESCRIPTION: Antimicrobial activity against Salmonella enterica serovar Typhimurium S21-1 tolC::Kan with GyrA S83F mutation
# Assay type: functional, Salmonella enterica subsp. enterica serovar Typhimurium
METRIC: MIC (µg/mL)
# output: bare number, implied unit µg/mL

Example entries begin here.
# MOLECULE, U, MIC
measured = [
    ("CN1CCN(c2cc3c(cc2F)c(=O)c(C(=O)O)cn3-c2ccc(F)cc2)CC1", "µg/mL", 0.25),
    ("C[C@@H]1CN(c2c(F)c(F)c3c(=O)c(C(=O)O)cn(C4CC4)c3c2F)C[C@H](C)N1", "µg/mL", 0.12),
    ("O=C(O)c1cn(-c2ccc(F)cc2)c2cc(N3CCNCC3)c(F)cc2c1=O", "µg/mL", 0.12),
    ("O=C(O)c1cn(C2CC2)c2cc(N3CCNCC3)c(F)cc2c1=O", "µg/mL", 0.06),
    ("C[C@H]1COc2c(N3CCN(C)CC3)c(F)cc3c(=O)c(C(=O)O)cn1c23.C[C@H]1COc2c(N3CCN(C)CC3)c(F)cc3c(=O)c(C(=O)O)cn1c23.O", "µg/mL", 0.06),
]

Let's switch to this molecule now.
Requested read-out: MIC. Entry: COc1c(N2CCNC(C)C2)c(F)cc2c(=O)c(C(=O)O)cn(C3CC3)c12 (stereo unspecified)
0.03
